experiment: Comparison of PK in DIO mice and lean mice; assay type: in vivo, mouse; details: mouse, plasma, po, 10 mg/kg, lean mice receiving ABT (150 mg/kg), oral (Table 58); read-out: AUC (0→4 h)
measured.property: AUC(0-t)
The answer consists of two parts: a number and, after it, its unit.

Could you tell me which AUC(0-t) is on file for `N#Cc1ccc(CCNC(=O)[C@@H]2CCN2c2cc(N3CCC(CCNC(=O)NCCC(=O)O)CC3)nc(C(F)(F)F)n2)cc1` ?
5.1 ng·h/mL

----------
Task for the reader: assign each of the following molecules its reported pEC50.
Target: human TGR5 receptor (Homo sapiens)
Sequence (Q8TDU6 1-330): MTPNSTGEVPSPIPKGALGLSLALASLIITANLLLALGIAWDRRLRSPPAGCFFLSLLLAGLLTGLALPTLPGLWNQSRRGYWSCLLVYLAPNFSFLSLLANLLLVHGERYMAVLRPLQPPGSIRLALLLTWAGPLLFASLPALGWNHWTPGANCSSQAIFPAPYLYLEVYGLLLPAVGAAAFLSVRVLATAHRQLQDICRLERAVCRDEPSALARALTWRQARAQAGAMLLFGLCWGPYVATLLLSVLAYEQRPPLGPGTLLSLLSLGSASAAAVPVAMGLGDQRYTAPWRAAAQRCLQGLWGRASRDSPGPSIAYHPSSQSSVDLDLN
Test: Human TGR5 cAMP production assay (hTGR5-CHO cells, DiscoveRx cAMP XS+ kit)
Conditions: luminescent cAMP assay, read-out: Human TGR5 Lum. cAMP Activity (EC50)
pEC50: −log10 of the molar value.

Could you tell me which pEC50 is on file for N#Cc1ccc(CCNC(=O)[C@@H]2CCCN2c2cc(-c3ccc4[nH]ccc4c3)nc(C(F)(F)F)n2)cc1 [Compound 157] ?
6.00 to 7.00

Could you tell me which pEC50 is on file for COC(=O)[C@@H](N)CCCCNC(=O)CCCC1CCN(c2cc(N3CCC[C@H]3C(=O)NCCc3ccc(C#N)cc3)nc(C(F)(F)F)n2)CC1 [Compound 71] ?
> 7.00

Could you tell me which pEC50 is on file for N#Cc1ccc(CCNC(=O)[C@@H]2CCCN(c3cc(N4CCC(CCN)CC4)nc(C(F)(F)F)n3)C2)cc1 [Compound 345] ?
> 7.00

Could you tell me which pEC50 is on file for N#Cc1ccc(CCNC(=O)[C@@H]2CCCN(c3cc(N4CCN(CC(=O)O)CC4)nc(C(F)(F)F)n3)C2)cc1 [Compound 315] ?
4.52 to 6.00

Could you tell me which pEC50 is on file for N#Cc1ccc(CCNC(=O)[C@@H]2CCCN2c2cc(N3CCC(CCCC(=O)NCCNC(=N)N)CC3)nc(C(F)(F)F)n2)cc1 [Compound 128] ?
> 7.00

Could you tell me which pEC50 is on file for COc1cc(C(F)(F)F)ccc1CCNC(=O)[C@@H]1CCN1c1cc(N2CCC(CCC(=O)NCCS(=O)(=O)O)CC2)nc(C(F)(F)F)n1 [Compound 259] ?
> 7.00
